Form field: pKa (one value per entry).
# ASSAY_EXPLANATION: Dissociation constant, pKa by potentiometric titration method
# Type: physicochemical

Some compounds with known pKa results, for comparison:
Field request: pKa | item: CCCN1CCN(c2ccccc2[N+](=O)[O-])CC1
7.94

Fill in the blank: the reported pKa of CCCN1CCN(c2cccc([N+](=O)[O-])c2)CC1 is ____.
7.7

Report pKa for CCCN1CCN(c2ccc(OC)cc2)CC1 please.
7.88

Which measured pKa value corresponds to CCCN1CCN(c2cccc(C(N)=O)c2)CC1 ?
7.76

Looking for the measured pKa of CCCN1CCN(c2ccc(C#N)cc2)CC1 , can you help?
7.78

Further cases:
Quick check: pKa of CCCN1CCN(c2cccc(OC)c2)CC1 ?
7.86

Report pKa for CCCN1CCN(c2ccccc2C)CC1 please.
8.39

---

# ASSAY_EXPLANATION: Dissociation constant, pKa by potentiometric titration method
# Format: physicochemical
Quick list: pKa per entry.
Respond numerically, and do not add a unit to the figure.

Some compounds with known pKa results, for comparison:
Item under review: CCCN1CCN(c2ccccc2OC)CC1 . Reported pKa?
8.29

Any idea what its pKa is? The compound is CCCN1CCN(c2cccc(O)c2)CC1
7.82

# query: pKa of entry CCCN1CCN(c2ccccc2C#N)CC1
7.92

Requested field: pKa. Item: CCCN1CCN(c2cccc(Cl)c2)CC1
7.83

Report pKa for CCCN1CCN(c2ccccc2O)CC1 please.
8.05

---
Which pKa reading was recorded for the compound CCCN1CCN(c2ccccc2C(N)=O)CC1 ?
8.14

Could you share which pKa value was measured for CCCN1CCN(c2cccc(C#N)c2)CC1 ?
7.67

What value of pKa has been recorded for this entry: CCCN1CCN(c2cccc(C)c2)CC1
7.83

Give its pKa value. Item: CCCN1CCN(c2ccc(O)cc2)CC1
7.92

Dear colleague, I am looking for the recorded pKa of the following compound: CCCN1CCN(c2cccc(C(F)(F)F)c2)CC1
7.81

---

# ASSAY_EXPLANATION: Dissociation constant, pKa by potentiometric titration method
# Assay type: physicochemical
Parameter pKa: see the listing below.

A selection of reference data follows.
Any idea what its pKa is? The compound is CCCN1CCN(c2ccc(C)cc2)CC1
7.92

// query pKa value for entry CCCN1CCN(c2ccc(C(F)(F)F)cc2)CC1
7.84

Tell me the measured pKa of CCCN1CCN(c2ccc(Cl)cc2)CC1 , please.
7.83

I'd like to know its pKa. The compound in question is CCCN1CCN(c2ccc([N+](=O)[O-])cc2)CC1
7.59

Entry under review: CCCN1CCN(c2ccc(C(N)=O)cc2)CC1 . Reported pKa?
7.84

Could you tell me which pKa is on file for CCCN1CCN(c2ccccc2Cl)CC1 ?
8.07

Bench note: what pKa did CCCN1CCN(c2ccccc2)CC1 show?
7.96

With those in mind, consider the next compound.
Value lookup for pKa; key = CCCN1CCN(c2ccccc2C(F)(F)F)CC1
8.8
